Tested on: IGROV1 ovarian
Assay: NCI tumour cell line growth inhibition, 48 h
Listed here are compounds together with their documented TGI.
READOUT KIND: TGI

O=C(O)c1ccccc1CC(Cc1ccc2c(c1)CCC2)C(=O)O (stereo not given) : > 100 µM
Oc1cc(Cl)cc2cccnc12 : 5.12 µM
COC(=O)/C(=N\NC(N)=S)C(C(=O)OC)C(=O)C(=O)Nc1ccc(C)cc1 (stereo not given) : > 100 µM
OC[C@H]1O[C@@H]2O[C@@](COCc3ccccc3)([C@H](OCc3ccccc3)[C@H]2O)[C@@H]1OCc1ccccc1 : 27 µM
O=C1c2cc(-c3ccccc3)cnc2S(=O)(=O)N1c1ccc(Br)cc1 : > 100 µM
O=C(NCP(=O)(Oc1ccccc1)Oc1ccccc1)OCc1ccccc1 : > 100 µM
CSc1nc(SC)c2c(C#N)[nH]nc2n1 : > 100 µM
CC(C)(/C=C(\C#N)C(=O)N1CCC[C@@H](n2nc(-c3ccc(Oc4ccccc4)cc3F)c3c(N)ncnc32)C1)N1CCN(C2COC2)CC1 : 16.6 µM
CC(C)(C)[Si](C)(C)OCC1OC(n2ccc(=O)[nH]c2=O)C(O[Si](C)(C)C(C)(C)C)/C1=C/C#N (stereo not given) : > 100 µM
O=C(O)CN1CCNCCN(CC(=O)O)CCN(CC(=O)O)CCNCC1 : > 100 µM
Cc1cccc(C)c1NC(=O)C(Cc1c[nH]c2ccccc12)NC(=O)OCc1ccccc1 (stereo not given) : 73 µM
N#Cc1nn(-c2cc(=O)[nH]c3ccc(Cl)cc23)c(N)c1C#N : > 100 µM
NS(=O)(=O)c1ccc(N=Nc2c(O)c(C(=O)O)cc3ccccc23)cc1 : > 100 µM
CN1C(=O)c2ccccc2NC(=O)C12O[C@@H]2c1ccccc1 (stereo not given in full) : > 100 µM
O=C1CCC(c2ccccc2)=NN1c1nsc2ccccc12 : > 100 µM
O=C1C=C/C(=N\N=C(c2ccccc2)c2ccccc2)O1 : > 10 µM
Cc1cc(/N=C/c2ccc(N(C)C)cc2)n(-c2ccccc2)n1 : > 100 µM
CCC[CH2][Sn]([CH2]CCC)([O]C(=O)c1ccc(OC)c(OC)c1OC)[O][Sn]([CH2]CCC)([CH2]CCC)[O]C(=O)c1ccc(OC)c(OC)c1OC : 2.47 µM
NCCCN1c2ccccc2Sc2ccc(Cl)cc21 : > 10 µM
N=c1c2c(-c3ccccc3)c(-c3ccccc3)n(Cc3ccccc3)c2ncn1C1CCC(O)CC1 (stereo not given) : 4.49 µM

###

Tested on: UACC-62 melanoma
Assay: NCI tumour cell line growth inhibition, 48 h
READOUT KIND: TGI

Cc1c(/C=N\NC(=S)NCCNC(=S)N/N=C\c2c(C)n(C)n(-c3ccccc3)c2=O)c(=O)n(-c2ccccc2)n1C : > 100 µM
C=C(C(=O)OCC)C(=O)OCC : > 100 µM
NS(=O)(=O)c1ccc(NC(=S)/N=C/C2=C(O)c3ccccc3C2=O)cc1 : > 100 µM
CCN1CN(c2ccccc2)C2(CCN(CC3COc4ccccc4O3)CC2)C1=O (stereo not given) : 73.4 µM
Clc1ccc(-c2nnc3sc4nc5ccccc5c-4nn23)c(Cl)c1 : > 100 µM

###

System: NCI-H522 lung
Assay: NCI tumour cell line growth inhibition, 48 h; in the data active = GI50 below about 0.43 µM; inactive = the rest
Classes used: Yes = active, No = inactive

CC(C)(/C=C(\C#N)C(=O)N1CCC[C@@H](n2nc(-c3ccc(Oc4ccccc4)cc3F)c3c(N)ncnc32)C1)N1CCN(C2COC2)CC1 : No
CCOC(=O)Nc1cc2c(c(N)n1)N=C(c1ccccc1)CO2 : Yes
Clc1cc2c(c(CSc3nc4ccccc4n4cccc34)c1)OCOC2 : No
COC(=O)c1c2c(c(C)[n+]([O-])c1C)C(=O)C=C(NCc1ccc(F)cc1)C2=O : No
C[C@@H]1C[C@@H]([C@@H](CC2CC(=O)NC(=O)C2)OC(=O)CC(=O)c2ccccc2)C(=O)[C@@H](C)C1 : Yes
O=c1c(F)cn(Cc2ccc(C34CC5CC(CC(C5)C3)C4)c(O)c2)c(=O)n1Cc1ccc(C23CC4CC(CC(C4)C2)C3)c(O)c1 : No
COC(=O)[C@]12CC[C@@H](C)[C@H](C)[C@@H]1C1=CC[C@@H]3[C@@]4(C)C[C@@H](O)[C@H](O)[C@@](C)(CO)C4=CC[C@@]3(C)[C@]1(C)CC2 : No
NC1CCN(Cc2ccccc2)CC1 : No
